Assay: Oral bioavailability in mouse at 10 mg/kg
Assay type: ADME, organism-based
Conditions: in vivo
PARAMETER_MEASURED: bioavailability (%)
# output: bare number, implied unit %

Record summary for O=C(O)c1cccc(Cc2cc(Cl)ccc2OCc2ccc(Cl)cc2F)n1 : reported bioavailability = 13.8

----------
Assay: Plasma clearance in mouse at 1 mg/kg, iv
Format: ADME, organism-based
Parameters: dose 1 mg/kg, route intravenous
PARAMETER_MEASURED: clearance (mL/min/kg)
The figure you give is taken to be in mL/min/kg; do not add the unit.

// O=C(O)c1cccc(Cc2cc(Cl)ccc2OCc2ccc(Cl)cc2F)n1 : clearance value = 59.2

----------
Target: UniProt:P35375
Assay: Antagonist activity at mouse EP1 receptor expressed in CHOK1 cells assessed as inhibition of 17PTPGE2-induced calcium influx
Type: functional, cell-based, CHO-K1
Conditions: read-out: Kd
Would you mind telling me the reported pKd of each entry?
API: returns pKd as number; meaning -log10 of concentration in mol/L.

For record O=C(c1cccc(Cc2cc(Cl)ccc2OCc2ccc(Cl)cc2F)n1)N1CCCC1 the listed pKd is 4.80

pKd recorded for this molecule, O=C(NS(=O)(=O)c1cc(Cl)ccc1Cl)c1cccc(Cc2cc(Cl)ccc2OCc2ccc(Cl)cc2F)n1 , is 7.27

Short answer for O=C(NCC1CC1)c1cccc(Cc2cc(Cl)ccc2OCc2ccc(Cl)cc2F)n1 : pKd was 6.26

Entry under test: NC(=O)c1cccc(Cc2cc(Cl)ccc2OCc2ccc(Cl)cc2F)n1 . Its pKd was 5.58

The reported value for CC(C)(C)NC(=O)c1cccc(Cc2cc(Cl)ccc2OCc2ccc(Cl)cc2F)n1 in terms of pKd is 5.36

pKd measured on O=C(NS(=O)(=O)c1ccc(Cl)c(Cl)c1)c1cccc(Cc2cc(Cl)ccc2OCc2ccc(Cl)cc2F)n1 = 6.67

Data point: CC(C)CNC(=O)c1cccc(Cc2cc(Cl)ccc2OCc2ccc(Cl)cc2F)n1 ; pKd = 6.52

Lab book: pKd of Cc1ccc(S(=O)(=O)NC(=O)c2cccc(Cc3cc(Cl)ccc3OCc3ccc(Cl)cc3F)n2)cc1 noted as 6.67

Entry O=C(NC1CCC1)c1cccc(Cc2cc(Cl)ccc2OCc2ccc(Cl)cc2F)n1 — recorded pKd = 6.04

----------
System: Mus musculus
Assay: Cmax in mouse at 5 mg/kg, sc
Assay type: ADME, organism-based
Design: dose 5 mg/kg, route subcutaneous
Conditions: in vivo
PARAMETER_MEASURED: Cmax (nM)
Give the quantity in nM, number only.

For this compound ( O=C(NS(=O)(=O)c1ccc(Cl)cc1)c1cccc(Cc2cc(Cl)ccc2OCc2ccc(Cl)cc2F)n1 ), measured Cmax is 504

----------
Would you kindly list Ki for each of these compounds?
Biological target: Prostaglandin E2 receptor EP3 subtype (Mus musculus)
Sequence (P30557 whole entry): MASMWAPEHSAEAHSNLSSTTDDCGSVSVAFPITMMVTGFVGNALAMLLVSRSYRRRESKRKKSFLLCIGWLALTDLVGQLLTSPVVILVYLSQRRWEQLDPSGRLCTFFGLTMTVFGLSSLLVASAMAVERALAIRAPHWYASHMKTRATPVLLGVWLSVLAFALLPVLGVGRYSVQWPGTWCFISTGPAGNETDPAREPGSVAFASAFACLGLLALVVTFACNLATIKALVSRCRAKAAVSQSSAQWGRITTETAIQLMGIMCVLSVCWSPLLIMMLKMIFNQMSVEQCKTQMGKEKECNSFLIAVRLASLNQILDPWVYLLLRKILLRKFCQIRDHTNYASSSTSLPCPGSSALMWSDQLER
Answer in nM, number only, no unit symbol.

Note to self: Ki recorded for O=C(NS(=O)(=O)c1ccc(Cl)cc1)c1cccc(Cc2cc(Cl)ccc2OCc2ccc(Cl)cc2F)n1 was 107

// field: Ki; key: O=C(NS(=O)(=O)c1cc(Cl)ccc1Cl)c1cccc(Cc2cc(Cl)ccc2OCc2ccc(Cl)cc2F)n1 ; value = 204

Lab note: measured Ki of O=C(NS(=O)(=O)c1ccc(Cl)c(Cl)c1)c1cccc(Cc2cc(Cl)ccc2OCc2ccc(Cl)cc2F)n1 was 66.1

----------
Assay: Half life in mouse at 1 mg/kg, iv
Type: ADME, organism-based
Parameters: dose 1 mg/kg, route intravenous
Details: in vivo
PARAMETER_MEASURED: half-life (h)
Give just the number in h; leave the unit off.

half-life in this record for O=C(O)c1cccc(Cc2cc(Cl)ccc2OCc2ccc(Cl)cc2F)n1 : 1.08

----------
I'd appreciate it if you could supply log10 of Kd values for the items below.
Molecular target: Prostaglandin E2 receptor EP1 subtype (Mus musculus, UniProt P35375)
Sequence (P35375 whole entry): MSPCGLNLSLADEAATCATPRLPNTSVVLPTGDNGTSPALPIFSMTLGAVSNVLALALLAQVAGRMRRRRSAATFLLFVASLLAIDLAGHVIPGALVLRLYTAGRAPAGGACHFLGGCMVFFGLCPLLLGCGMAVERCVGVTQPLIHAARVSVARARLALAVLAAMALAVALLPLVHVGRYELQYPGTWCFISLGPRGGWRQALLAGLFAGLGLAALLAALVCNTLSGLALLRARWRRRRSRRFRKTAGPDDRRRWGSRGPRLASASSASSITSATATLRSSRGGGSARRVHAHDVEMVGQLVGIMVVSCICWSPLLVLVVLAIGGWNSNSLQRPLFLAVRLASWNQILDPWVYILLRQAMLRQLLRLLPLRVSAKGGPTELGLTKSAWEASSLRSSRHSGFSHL
Assay: Antagonist activity at mouse EP1 receptor expressed in CHOK1 cells assessed as inhibition of 17PTPGE2-induced calcium influx
Type: functional, cell-based, CHO-K1
Conditions: read-out: Kd
Transform log10 | Measure Kd | Unit nM

Consider O=C(O)c1cccc(Cc2cc(Cl)ccc2OCc2ccc(Cl)cc2F)n1 . Its measured log10 of Kd is 1.68

Notebook: CCN(CC)C(=O)c1cccc(Cc2cc(Cl)ccc2OCc2ccc(Cl)cc2F)n1 , log10 of Kd read as 2.65

Given item CCC(C)NC(=O)c1cccc(Cc2cc(Cl)ccc2OCc2ccc(Cl)cc2F)n1 (stereo not given) , the value recorded as its log10 of Kd is 3.14

Recorded log10 of Kd (compound O=C(NS(=O)(=O)c1ccc(Cl)cc1)c1cccc(Cc2cc(Cl)ccc2OCc2ccc(Cl)cc2F)n1 ): 1.61

Value of log10 of Kd reported for the compound O=C(NC1CC2CCC1C2)c1cccc(Cc2cc(Cl)ccc2OCc2ccc(Cl)cc2F)n1 (stereo not given) is 3.34
